target: mTORC2 (Homo sapiens); assay: Inhibition of mTORC2 in human A2058 cells assessed as reduction in PKB phosphorylation at S473 residues incubated for 1 hr by Western blot analysis
pIC50: −log10 of the molar value.
Decision: pIC50 compared against 6; not below it gives yes, below it gives no.

These solved cases illustrate the format of a correct answer.
INSERT INTO measurements (structure_notation, target_system, classification) VALUES
  ('COc1cc(N)ncc1-c1nc2c(c(N3CCOC[C@H]3C)n1)C[C@@H]1COCCN21', 'mTORC2 (Homo sapiens)', 'no'),
  ('Cc1cc(-c2nc3c(c(N4CCOC[C@H]4C)n2)C[C@@H]2COCCN32)cnc1N', 'mTORC2 (Homo sapiens)', 'yes'),
  ('COC(OC)c1cc(N)ncc1-c1nc2c(c(N3CCOC[C@H]3C)n1)C[C@@H]1COCCN21', 'mTORC2 (Homo sapiens)', 'no'),
  ('CC1(C)COCCN1c1nc(-c2ccc(N)nc2)nc2c1C[C@@H]1COCCN21', 'mTORC2 (Homo sapiens)', 'yes'),
  ('Nc1ccc(-c2nc(N3CCOCC3)nc3c2C[C@@H]2COCCN32)cn1', 'mTORC2 (Homo sapiens)', 'no'),
  ('C[C@@H]1COCCN1c1nc(-c2ccc(N)nc2)nc2c1C[C@H]1COCCN21', 'mTORC2 (Homo sapiens)', 'yes');

IN: Entry Nc1ccc(-c2nc(N3C4CCC3COC4)c3c(n2)N2CCOC[C@H]2C3)cn1 : is its pIC50 no less than 6?
OUT: yes

IN: Entry Nc1cc(C(F)(F)F)c(-c2nc(N3CCOCC3)c3c(n2)N2CCCC[C@@H]2C3)cn1 : is its pIC50 no less than 6?
OUT: yes

IN: Entry C[C@H]1COCCN1c1nc(-c2ccc(N)nc2)nc2c1C[C@@H]1COCCN21 : is its pIC50 no less than 6?
OUT: yes

IN: Entry C[C@@H]1COCCN1c1nc(-c2cnc(N)nc2)nc2c1C[C@@H]1COCCN21 : is its pIC50 no less than 6?
OUT: yes

IN: Entry Nc1cc(C(F)(F)F)c(-c2nc(N3CCOCC3)c3c(n2)N2CCOC[C@H]2C3)cn1 : is its pIC50 no less than 6?
OUT: yes

IN: Entry Nc1cc(C(F)(F)F)c(-c2nc(N3CCOCC3)c3c(n2)N2CCOC[C@@H]2C3)cn1 : is its pIC50 no less than 6?
OUT: yes

IN: Entry C[C@@H]1COCCN1c1nc(-c2cnc(N)cn2)nc2c1C[C@@H]1COCCN21 : is its pIC50 no less than 6?
OUT: yes
